// reported inhibition at 360 h for each item listed
assay protocol: Phytotoxicity against Glycine max (soybean) assessed as growth inhibition at 30 g/ha post-emergence treatment measured after 15 days by crop-selectivity assay
Assay type: organism-based
applied conditions: in vivo, read-out: GI
value kind: inhibition at 360 h

C#CCN1C(=O)COc2cc(F)c(N3C(=O)C4=C(CCCC4)C3=O)cc21 : > 10%
C#CCN1C(=O)COc2cc(F)c(N3C(=O)c4ccc(F)cc4C3=O)cc21 : > 10%

====

assay protocol: Phytotoxicity against Triticum aestivum (wheat) assessed as growth inhibition at 30 g/ha post-emergence treatment measured after 15 days by crop-selectivity assay
Assay type: organism-based
applied conditions: in vivo, 30 g/ha, read-out: GI
value kind: inhibition at 360 h

C#CCN1C(=O)COc2cc(F)c(N3C(=O)C4=C(CCCC4)C3=O)cc21 : > 10%
